- Assay text: NCI Yeast Anticancer Drug Screen. Data for the bub3 strain (AID 167)
- Measurement conditions: S. cerevisiae bub3 mutant strain, at 1.2 µM, active compounds read high
This is part of a sample that, as a whole, favours compounds with a hit. Of some 79,000 tested, about 15% had one in any assay.
A collection of molecules and their measured growth inhibition
Write the answer as a number in %, unit excluded.

smiles_representation=O=C(Nc1ccc(Cl)cc1)Nc1nnc2nc(C(C(=O)c3cccc([N+](=O)[O-])c3Cl)c3nc4nnc(NC(=O)Nc5ccc(Cl)cc5)n4[nH]c3=O)c(=O)[nH]n12 unit_of_measurement=% measured_number=-5
smiles_representation=C[C@@](O)(/C=C/[C@H]1CC=CC(=O)O1)[C@@H](C[C@@H](O)\C=C/C=C\C=C\CO)OP(=O)(O)O unit_of_measurement=% measured_number=29
smiles_representation=Cc1c(-c2ccccn2)ccc2ccccc12 unit_of_measurement=% measured_number=3

Next molecule, growth inhibition to be filled in.
Query block: Entry Cc1c2cc[n+](Cc3ccc(I)cc3)cc2c(C)c2c1[nH]c1ccccc12 needs its growth inhibition filled in; supply it.
Result block: 18
